experimentalTarget: human adenosine A2A receptors (Homo sapiens)
Construct: host or cells: HEK-293
Sequence (P29274 whole entry): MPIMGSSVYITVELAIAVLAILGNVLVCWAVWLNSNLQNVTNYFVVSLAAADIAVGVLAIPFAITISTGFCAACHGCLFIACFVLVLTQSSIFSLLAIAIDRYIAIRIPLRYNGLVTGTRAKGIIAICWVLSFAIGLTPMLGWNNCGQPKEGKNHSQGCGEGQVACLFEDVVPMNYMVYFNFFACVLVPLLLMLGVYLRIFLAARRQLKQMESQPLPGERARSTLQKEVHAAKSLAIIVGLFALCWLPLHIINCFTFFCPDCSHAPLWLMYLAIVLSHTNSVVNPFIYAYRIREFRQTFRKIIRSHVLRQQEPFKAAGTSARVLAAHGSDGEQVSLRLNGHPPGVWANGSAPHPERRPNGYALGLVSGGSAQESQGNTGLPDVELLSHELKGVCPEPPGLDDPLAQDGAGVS
experiment: Adenosine receptor binding: binding affinities at hA2A receptors ([3H]CGS-21680 displacement)
conditionParameters: ratio of measured Ki values at hA2A and hA1
observedProperty: A2A/A1 selectivity ratio (Ki A2A/Ki A1)

{"columns": ["smilesRepresentation", "reading"],
 "data": [
  ["Nc1nc(-c2cccs2)c2nnn(Cc3cccc(NS(=O)(=O)O)c3)c2n1", "G (10 to 20)"],
  ["Cc1ccc(Cn2nnc3c(-c4ccccc4)nc(N)nc32)cc1NS(=O)(=O)O", "G (10 to 20)"],
  ["Cc1ccc(-c2nc(N)nc3c2nnn3Cc2ccc(NS(=O)(=O)O)c(C)c2)o1", "H (more than 20)"],
  ["COc1cc(Cn2nnc3c(-c4cccs4)nc(N)nc32)ccc1NS(=O)(=O)O", "H (more than 20)"]
]}

Would you kindly look at the next entry?
Reported A2A/A1 selectivity ratio (Ki A2A/Ki A1) ( Cc1cc(Cn2nnc3c(-c4cccs4)nc(N)nc32)ccc1NS(=O)(=O)O ) = H (more than 20)
